assay-system: T1, human ferroportin (SLC40A1) fused in frame with GFP, stably expressed in HEK293 cells (human, UniProt Q9NP59 1-571)
T1 sequence (looked up): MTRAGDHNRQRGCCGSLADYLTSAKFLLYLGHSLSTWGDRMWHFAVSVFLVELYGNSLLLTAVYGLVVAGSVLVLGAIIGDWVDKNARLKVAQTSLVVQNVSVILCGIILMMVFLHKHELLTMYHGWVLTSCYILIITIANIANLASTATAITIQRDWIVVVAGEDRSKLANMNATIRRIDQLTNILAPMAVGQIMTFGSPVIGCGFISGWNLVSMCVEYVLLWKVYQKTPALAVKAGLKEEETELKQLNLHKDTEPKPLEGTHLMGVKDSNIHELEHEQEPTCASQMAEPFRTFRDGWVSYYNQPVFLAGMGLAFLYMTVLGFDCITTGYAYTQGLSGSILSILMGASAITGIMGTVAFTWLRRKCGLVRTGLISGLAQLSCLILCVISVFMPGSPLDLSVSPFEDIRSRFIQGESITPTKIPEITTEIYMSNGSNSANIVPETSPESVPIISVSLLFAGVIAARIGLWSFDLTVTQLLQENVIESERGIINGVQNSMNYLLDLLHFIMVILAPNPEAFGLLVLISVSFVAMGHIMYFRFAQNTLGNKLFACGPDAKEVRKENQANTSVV
protocol-summary: cell-based or functional assay
Primed or numbered codes have the meaning given here. * marks the point of attachment. Palmitoyl = CCCCCCCCCCCCCCCC(=O)*; PEG3′ = not defined here
test-readout: Potency EC50 (nM)

Take a look at these entries with their results.
H-DTHFPCISFGPRSKGWVCK-NH2 (not fully specified (bridges); printed as Hy-DTHFPCISFGPRSKGWVCK-NH2; cysteine pairing not given here) [Compound 101]	> 1000 nM
H-DTHFPICAFGPRSKGWVCM-NH2 (cysteine pairing not given here) [Compound 68]	> 10000 nM
H-THFPCIIFGPRSKGWVCM-NH2 (cysteine pairing not given here) [Compound 132]	> 1000 nM
H-DTHFPCIKFGPRSKGWVCK-NH2 (cysteine pairing not given here) [Compound 215]	> 1000 nM

// query What value of Potency EC50 (nM) has been recorded for this entry: H-DTHFPCIRFGPRSRGWRCK-NH2 (cysteine pairing not given here) [Compound 82]
// result > 1000 nM

// query How about this binder: {Palmitoyl-PEG3′}-DTHFPCIKFGPRSKGWVCK-NH2 (cysteine pairing not given here) [Compound 217]
// result > 1000 nM
